The entries below come with measured pIC50 values attached.
Molecular target: D(4) dopamine receptor (Homo sapiens, UniProt P21917)
Sequence (P21917 whole entry): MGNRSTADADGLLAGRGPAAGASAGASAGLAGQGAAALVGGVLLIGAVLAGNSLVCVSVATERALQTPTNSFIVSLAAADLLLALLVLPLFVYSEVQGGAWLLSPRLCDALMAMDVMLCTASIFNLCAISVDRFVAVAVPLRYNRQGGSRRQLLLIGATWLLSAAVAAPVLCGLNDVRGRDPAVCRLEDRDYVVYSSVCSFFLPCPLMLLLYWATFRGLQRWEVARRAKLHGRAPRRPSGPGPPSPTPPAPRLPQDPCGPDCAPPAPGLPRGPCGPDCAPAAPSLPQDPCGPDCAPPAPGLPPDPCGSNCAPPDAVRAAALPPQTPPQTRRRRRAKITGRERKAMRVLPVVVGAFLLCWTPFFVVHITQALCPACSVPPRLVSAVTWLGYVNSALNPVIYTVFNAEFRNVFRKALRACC
Test: In vitro inhibitory concentration tested on human D4.4 receptor in HEK293 cells using FLIPR assay
pIC50 here is simply -log10 of the concentration when that concentration is written in mol/L.

input: Would you mind telling me what pIC50 value was observed for Cc1ccc(C)c(N2CCN(Cc3nc4ccccc4[nH]3)CC2)c1 ?
output: 9.00

input: Fill blank: measured pIC50 of the molecule Cc1ccc(N2CCN(Cc3nc4ccccc4[nH]3)CC2)cc1C is ____.
output: 8.30

----------
Molecular target: UniProtKB P35462
Sequence (P35462 whole entry): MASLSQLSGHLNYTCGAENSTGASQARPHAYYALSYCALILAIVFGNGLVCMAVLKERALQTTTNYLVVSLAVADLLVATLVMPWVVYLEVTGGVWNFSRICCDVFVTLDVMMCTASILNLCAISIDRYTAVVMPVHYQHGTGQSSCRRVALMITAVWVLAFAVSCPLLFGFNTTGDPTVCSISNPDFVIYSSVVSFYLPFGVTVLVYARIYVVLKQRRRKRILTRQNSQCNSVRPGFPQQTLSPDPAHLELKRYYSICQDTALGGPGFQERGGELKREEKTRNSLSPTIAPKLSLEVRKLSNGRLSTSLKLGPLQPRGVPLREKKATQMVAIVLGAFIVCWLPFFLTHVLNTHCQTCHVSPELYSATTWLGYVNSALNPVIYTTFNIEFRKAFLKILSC
RECORDED_METRIC: pKi
Just the number, please; pKi means minus log10 of the concentration in mol/L.

input: // lookup pKi | system=UniProtKB P35462 | key= Fc1ccc2[nH]c(CN3CCN(c4ccccn4)CC3)cc2c1
output: 6.25

----------
Molecular target: D(2) dopamine receptor (Rattus norvegicus, UniProt P61169)
Sequence (P61169 whole entry): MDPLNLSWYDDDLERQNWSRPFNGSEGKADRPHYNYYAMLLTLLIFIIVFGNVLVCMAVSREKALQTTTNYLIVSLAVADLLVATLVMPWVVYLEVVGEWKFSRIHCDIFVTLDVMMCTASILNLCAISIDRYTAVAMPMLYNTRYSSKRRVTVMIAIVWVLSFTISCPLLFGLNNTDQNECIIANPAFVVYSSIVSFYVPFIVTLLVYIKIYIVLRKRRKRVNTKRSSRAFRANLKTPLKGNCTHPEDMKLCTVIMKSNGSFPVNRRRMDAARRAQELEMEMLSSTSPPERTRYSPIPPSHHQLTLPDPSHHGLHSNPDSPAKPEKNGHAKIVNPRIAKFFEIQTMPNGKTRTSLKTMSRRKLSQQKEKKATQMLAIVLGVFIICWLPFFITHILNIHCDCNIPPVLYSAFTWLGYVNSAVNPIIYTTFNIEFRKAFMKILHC
Assay: In vitro effective concentration tested on HEK293 cells co-transfected with rat Dopamine receptor D2 using FLIPR assay
Assay type: cell-based
RECORDED_METRIC: pEC50
pEC50 here is simply -log10 of the concentration when that concentration is written in mol/L.

input: I'm curious: which pEC50 was measured for Fc1ccc2[nH]c(CN3CCN(c4ccccn4)CC3)cc2c1 tested on D(2) dopamine receptor (Rattus norvegicus, UniProt P61169)?
output: 7.26

----------
Molecular target: D(2) dopamine receptor (Homo sapiens)
Assay: In vitro binding affinity tested on human Dopamine receptor D2 using [3H]spiperon as a radioligand
RECORDED_METRIC: pKi
Convention used: pKi is expressed as -log10 of the molar concentration.

input: Given the entry c1ccc(N2CCN(Cc3nc4ccccc4[nH]3)CC2)nc1 , report its measured pKi.
output: 6.80

----------
Target: D(2) dopamine receptor (Homo sapiens, UniProt P14416)
Sequence (P14416 whole entry): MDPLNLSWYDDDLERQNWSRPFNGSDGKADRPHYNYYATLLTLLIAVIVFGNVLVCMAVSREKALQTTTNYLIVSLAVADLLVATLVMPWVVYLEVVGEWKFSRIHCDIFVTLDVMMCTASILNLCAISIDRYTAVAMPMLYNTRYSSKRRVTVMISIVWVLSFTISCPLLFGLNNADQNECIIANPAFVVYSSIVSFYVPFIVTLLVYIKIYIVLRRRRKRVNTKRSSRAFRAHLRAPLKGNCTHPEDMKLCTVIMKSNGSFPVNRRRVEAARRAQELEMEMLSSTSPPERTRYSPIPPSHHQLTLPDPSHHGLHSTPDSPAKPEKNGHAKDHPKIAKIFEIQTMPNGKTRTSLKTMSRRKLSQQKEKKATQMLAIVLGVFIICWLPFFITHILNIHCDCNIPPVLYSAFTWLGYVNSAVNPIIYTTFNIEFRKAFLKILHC
Experiment: Binding affinity towards human Dopamine receptor D2
RECORDED_METRIC: pKi
Hey, just a heads up that pKi is the negative log base 10 of the concentration in molar.

input: Form: Entry = Fc1ccc2[nH]c(CN3CCN(c4ccccn4)CC3)cc2c1 | System = D(2) dopamine receptor (Homo sapiens, UniProt P14416) | pKi = ____
output: 6.92

----------
# reported EC50; entries follow
Target: D(4) dopamine receptor (Homo sapiens, UniProt P21917)
Assay: In vitro EC50 tested on HEK293 cells co-transfected with human Dopamine receptor D4.4 using FLIPR assay
Type: cell-based
Give the quantity in µM, number only.

// below: answered molecules
input: EC50 of Brc1cc(Br)c2[nH]c(CN3CCN(c4ccccn4)CC3)nc2c1 on D(4) dopamine receptor (Homo sapiens, UniProt P21917)?
output: 0.416

input: Request: EC50, test system D(4) dopamine receptor (Homo sapiens, UniProt P21917), entry CSc1ccccc1N1CCN(Cc2nc3ccccc3[nH]2)CC1
output: 0.086

input: Can you look up EC50 on D(4) dopamine receptor (Homo sapiens, UniProt P21917) for N#Cc1cccnc1N1CCN(Cc2nc3ccccc3[nH]2)CC1 ?
output: 0.0139

input: Lab note: need EC50 for Fc1ccccc1N1CCN(Cc2nc3ccccc3[nH]2)CC1 on D(4) dopamine receptor (Homo sapiens, UniProt P21917), anyone have it?
output: 0.0147

input: Find the measured EC50: item c1ccc(C2CCN(Cc3nc4ccccc4[nH]3)CC2)nc1 , target or system D(4) dopamine receptor (Homo sapiens, UniProt P21917).
output: 0.014

Further cases:
input: Value wanted: EC50 (D(4) dopamine receptor (Homo sapiens, UniProt P21917)) of entry Clc1ccccc1N1CCN(Cc2nc3ccccc3[nH]2)CC1
output: 0.0072

input: Hi! What's the reported EC50 for N#Cc1ccccc1N1CCN(Cc2nc3ccccc3[nH]2)CC1 on D(4) dopamine receptor (Homo sapiens, UniProt P21917)?
output: 0.0146

input: D(4) dopamine receptor (Homo sapiens, UniProt P21917) / EC50 / c1ccc(N2CCN(Cc3nc4ccccc4[nH]3)CC2)cc1 : value?
output: 0.0306

input: Kindly state the measured EC50 obtained for O=[N+]([O-])c1ccccc1N1CCN(Cc2nc3ccccc3[nH]2)CC1 with D(4) dopamine receptor (Homo sapiens, UniProt P21917).
output: 0.0039

----------
Target: D(4) dopamine receptor (Homo sapiens) (UniProt P21917)
Sequence (whole entry): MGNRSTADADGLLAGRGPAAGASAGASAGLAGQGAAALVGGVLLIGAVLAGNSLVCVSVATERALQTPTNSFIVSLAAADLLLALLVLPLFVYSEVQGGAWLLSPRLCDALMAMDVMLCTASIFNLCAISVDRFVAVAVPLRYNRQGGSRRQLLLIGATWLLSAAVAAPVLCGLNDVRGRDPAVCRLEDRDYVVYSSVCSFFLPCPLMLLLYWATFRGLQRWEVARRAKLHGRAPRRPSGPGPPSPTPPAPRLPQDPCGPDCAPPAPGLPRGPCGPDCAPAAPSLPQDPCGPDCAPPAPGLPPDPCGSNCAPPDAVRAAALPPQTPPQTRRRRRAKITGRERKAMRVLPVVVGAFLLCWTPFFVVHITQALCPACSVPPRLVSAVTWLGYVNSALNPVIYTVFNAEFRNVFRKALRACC
Assay: In vitro efficacy tested on human Dopamine receptor D4.4 were co-expressed with GRqo5 in HEK293 cells using FLIPR assay (Efficacy relative to 10 uM dopamine)
Format: cell-based
# Efficacy per entry
Form entry: value (%) — number only.

input: Return reported Efficacy; argument: C[C@@H]1CN(c2ccccn2)CCN1Cc1nc2ccccc2[nH]1
output: 34

input: Quick check: Efficacy of c1cnc(N2CCN(Cc3nc4ccccc4[nH]3)CC2)nc1 ?
output: 49

***
input: Consider the compound shown here: COc1ccccc1C1CCN(Cc2nc3ccccc3[nH]2)CC1 What is its recorded Efficacy?
output: 34

input: Tell me the measured Efficacy of O=[N+]([O-])c1ccccc1N1CCN(Cc2nc3ccccc3[nH]2)CC1 , please.
output: 40

input: Suppose we examine the compound Clc1ccccc1N1CCN(Cc2nc3ccccc3[nH]2)CC1 ; what Efficacy value has been reported?
output: 39

input: Sample N#Cc1ccccc1N1CCN(Cc2nc3ccccc3[nH]2)CC1 — what was its Efficacy?
output: 46

input: Data request, read-out Efficacy, for Brc1cc(Br)c2[nH]c(CN3CCN(c4ccccn4)CC3)nc2c1
output: 37

input: Fill in: Efficacy of CCOc1ccccc1N1CCN(Cc2nc3ccccc3[nH]2)CC1 is ___
output: 31

input: Name the recorded Efficacy for c1ccc(N2CCN(Cc3nc4ccccc4[nH]3)CC2)cc1 .
output: 33

----------
Consider the following compounds and their measured Activity readings.
Tested on: Rattus norvegicus
Assay: In vivo maximal penile erection in rats 60 min after subcutaneous administration
Format: functional
Report the value in % with no unit label.

Please review the entries below; each comes with its answer.
input: GET /values?readout=Activity&item= c1ccc(N2CCN(Cc3nc4ccccc4[nH]3)CC2)nc1 [ABT-724]
output: 77

input: If you can, please state the reported Activity value of c1cnc(N2CCN(Cc3nc4ccccc4[nH]3)CC2)nc1 .
output: 85

input: Look at this compound and give its reported Activity. Fc1ccc2[nH]c(CN3CCN(c4ccccn4)CC3)cc2c1
output: 83

Kindly review the next compound as well.
input: GET /values?readout=Activity&item= Fc1cccnc1N1CCN(Cc2nc3ccccc3[nH]2)CC1
output: 75

----------
Target: D(4) dopamine receptor (Homo sapiens) (UniProt P21917)
Assay: In vitro efficacy tested on human Dopamine receptor D4.4 were co-expressed with GRqo5 in HEK293 cells using FLIPR assay (Efficacy relative to 10 uM dopamine)
Type: cell-based
RECORDED_METRIC: Efficacy (%)
Only the number, expressed in %, is required.

For orientation, consider the following solved cases.
input: Report Efficacy for Cc1cccc(N2CCN(Cc3nc4ccccc4[nH]3)CC2)n1 please.
output: 36

input: # Efficacy lookup, item c1ccc(N2CCN(Cc3nc4ccccc4[nH]3)CC2)nc1
output: 61

input: Which Efficacy reading was recorded for the compound CS(=O)(=O)c1cccnc1N1CCN(Cc2nc3ccccc3[nH]2)CC1 ?
output: 27

input: Reported Efficacy, compound CSc1ccccc1N1CCN(Cc2nc3ccccc3[nH]2)CC1 : ____
output: 42

input: What measured Efficacy goes with Fc1cccnc1N1CCN(Cc2nc3ccccc3[nH]2)CC1 ?
output: 27

***
input: Looking for the measured Efficacy of C1=C(c2ccccc2)CCN(Cc2nc3ccccc3[nH]2)C1 , can you help?
output: 48

input: Entry under review: c1ccc(C2CCN(Cc3nc4ccccc4[nH]3)CC2)nc1 . Reported Efficacy?
output: 51

input: Endpoint output: Efficacy of Fc1ccc2[nH]c(CN3CCN(c4ccccn4)CC3)nc2c1 . Value?
output: 57

input: Name the recorded Efficacy for C[C@H]1CN(c2ccccn2)CCN1Cc1nc2ccccc2[nH]1 .
output: 43

input: Param item = c1ccc(N2CCN(CCc3nc4ccccc4[nH]3)CC2)nc1 ; retrieve measured Efficacy.
output: 62

input: Look at this compound and give its reported Efficacy. Fc1ccccc1N1CCN(Cc2nc3ccccc3[nH]2)CC1
output: 42

input: What Efficacy value was documented for this compound, N#Cc1cccnc1N1CCN(Cc2nc3ccccc3[nH]2)CC1 ?
output: 50

input: Looking for the measured Efficacy of COc1ccccc1N1CCN(Cc2nc3ccccc3[nH]2)CC1 , can you help?
output: 48

input: Fill blank: measured Efficacy of the compound C1=C(c2ccccn2)CCN(Cc2nc3ccccc3[nH]2)C1 is ____.
output: 63
